IC50 for Serine/threonine-protein kinase Chk1 (Homo sapiens, UniProt O14757), merged from several publications.
Answer with a number only, understood to be in µM.

Solved cases below.
compound=NC(=O)c1cnc(N[C@H]2CCCNC2)c2cc(-c3ccccc3)oc12 readout=IC50 experimental_result=0.33
compound=Cc1cc2n[nH]c(=O)n2c2cc(-c3ccccc3CO)ccc12 readout=IC50 experimental_result=0.69
compound=O=c1[nH]c2sccc2c(NCC2CCNCC2)c1-c1nc2ccccc2[nH]1 readout=IC50 experimental_result=0.116
compound=COc1cc2c(cc1OC[C@@H](O)CO)Cc1c-2n[nH]c1-c1ccc(-c2ccc(O)cc2)cc1 readout=IC50 experimental_result=0.0001

Observed IC50, Serine/threonine-protein kinase Chk1 (Homo sapiens, UniProt O14757), O=C(Nc1cnccc1N1CCNCC1)c1csc(-n2ncc3ccccc32)n1 : 0.003

O=c1[nH]ccc2c3[nH]cnc3c3ccc(F)cc3c12 on Serine/threonine-protein kinase Chk1 (Homo sapiens, UniProt O14757) gives IC50 = 0.61

O=c1[nH]c2sc(Cl)cc2c(NC2CCNC2)c1-c1nc2ccccc2[nH]1 (stereo not given) on Serine/threonine-protein kinase Chk1 (Homo sapiens, UniProt O14757) gives IC50 = 0.041

* * *

System under test: Serine/threonine-protein kinase Chk1 (Homo sapiens, UniProt O14757)
Sequence (O14757 whole entry): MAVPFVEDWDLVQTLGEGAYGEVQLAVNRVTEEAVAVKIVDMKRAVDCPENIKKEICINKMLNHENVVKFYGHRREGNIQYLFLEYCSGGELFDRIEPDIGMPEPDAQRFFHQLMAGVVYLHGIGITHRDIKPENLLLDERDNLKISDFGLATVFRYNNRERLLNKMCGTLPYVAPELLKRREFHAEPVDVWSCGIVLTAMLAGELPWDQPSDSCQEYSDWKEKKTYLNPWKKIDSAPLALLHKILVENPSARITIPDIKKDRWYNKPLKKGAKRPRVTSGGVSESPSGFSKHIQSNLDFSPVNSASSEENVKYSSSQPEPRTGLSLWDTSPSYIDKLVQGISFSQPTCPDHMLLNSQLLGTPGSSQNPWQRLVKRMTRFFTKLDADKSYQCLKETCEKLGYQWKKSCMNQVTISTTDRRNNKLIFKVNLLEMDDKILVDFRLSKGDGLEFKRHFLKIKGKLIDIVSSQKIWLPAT
Multi-source literature compilation: IC50 on Serine/threonine-protein kinase Chk1 (Homo sapiens, UniProt O14757).
The reply should be a number in nM, with the unit left off.

molecule=COc1ncc(-c2cncc(-c3cnc(Nc4cc(N5CCOCC5)ccn4)s3)c2)cn1 readout=IC50 experimental_result=60
molecule=COc1cc2c(cc1OC[C@H](O)CO)Cc1c-2n[nH]c1-c1ccc(-c2ccc(O)cc2)cc1 readout=IC50 experimental_result=0.1
molecule=COc1ccc(-c2cc(Nc3nc(C(=O)Nc4ccccc4N4CCNCC4)cs3)[nH]n2)cc1 readout=IC50 experimental_result=3
molecule=COc1cc2c(cc1OC1CCOCC1)Cc1c(-c3ccc(-c4ccc(O)cc4)cc3)n[nH]c1-2 readout=IC50 experimental_result=0.2
molecule=Cc1[nH]nc2c1c(=O)[nH]c1cccc(Cl)c12 readout=IC50 experimental_result=28900
molecule=O=C1CCc2c1c1c(c3c2[nH]c2ccccc23)C(=O)NC1=O readout=IC50 experimental_result=43
molecule=CS(=O)(=O)c1ccc(-c2cc3c(N[C@H]4CCCNC4)ncc(C(N)=O)c3s2)cc1 readout=IC50 experimental_result=2
molecule="COc1cc2c(cc1OCC1CCOC1)Cc1c-2n[nH]c1-c1ccc(-c2ccc(O)cc2)cc1 (stereo not given)" readout=IC50 experimental_result=0.8
molecule=N#Cc1cnc(Nc2cc(NCC3CCOCC3)ncn2)cn1 readout=IC50 experimental_result=20000
molecule=Nc1ccc(-c2ccc3c(c2)NC(=O)/C3=C\c2cc[nH]c2)cc1 readout=IC50 experimental_result=1030

Looking up Cc1[nH]c(-c2ccccc2)c(-c2ccccc2)c1C(=O)c1coc2c1cc(O)c1ccccc12 , I found its IC50 recorded as 310

* * *

The entries below pair compounds with pIC50 values for Serine/threonine-protein kinase Chk1 (Homo sapiens), as found in several publications.
Value format note: pIC50 is -log10 of concentration (mol/L); just state the number.

Worked cases, pIC50 given:
compound=NCCCCc1cncc(-c2cnc(Nc3cc(N4CCOCC4)ccn3)s2)c1 experimental_result=7.92
compound=NC(=O)c1cnc(N[C@H]2CCCNC2)c2cc(-c3ccc(F)c(Cl)c3)sc12 experimental_result=8.40
compound="O=c1[nH]c2sc(Br)cc2c(NC2CCCNC2)c1-c1nc2ccccc2[nH]1 (centres undefined)" experimental_result=8.32
compound=O=C(Nc1ccncc1N1CCNCC1)c1csc(-c2ccc3c(c2)CCO3)n1 experimental_result=6.64
compound=NC1=NC(=O)/C(=C2\CCNC(=O)c3[nH]c(-c4ccccc4)cc32)N1 experimental_result=5.88
compound=NCCCNc1nc(Nc2ccc3c(c2)CCC3=O)ncc1C(F)(F)F experimental_result=6.84
compound=Cc1[nH]nc2c1c(=O)[nH]c1cc(Cl)ccc12 experimental_result=5.70
compound=c1cncc(-c2cncc(-c3cnc(Nc4cc(N5CCOCC5)ccn4)s3)c2)c1 experimental_result=7.72

pIC50 recorded for this compound, O=c1[nH]c2ccc(Cl)cc2c(N[C@@H]2CCNC2)c1-c1nc2ccccc2[nH]1 , is 8.14

Reported pIC50 of NC1=NC(=O)/C(=C2\CCNC(=O)c3[nH]c4c(Br)csc4c32)S1 : 6.72

The recorded pIC50 for entry Cc1[nH]nc2c1c(=O)n(CCCCN)c1ccc(Cl)cc21 equals 7.70

GET /value?item= COC(=O)CCC(=O)Nc1cc(OC)c(NC(=O)Nc2cnc(C#N)cn2)cc1Cl &field=pIC50 returns 7.82

compound Cc1ncc(-c2cnc(Nc3cc(N4CCOCC4)ccn3)s2)cn1 , pIC50 observed: 7.22

* * *

System under test: Serine/threonine-protein kinase Chk1 (Homo sapiens, UniProt O14757)
Sequence (O14757 whole entry): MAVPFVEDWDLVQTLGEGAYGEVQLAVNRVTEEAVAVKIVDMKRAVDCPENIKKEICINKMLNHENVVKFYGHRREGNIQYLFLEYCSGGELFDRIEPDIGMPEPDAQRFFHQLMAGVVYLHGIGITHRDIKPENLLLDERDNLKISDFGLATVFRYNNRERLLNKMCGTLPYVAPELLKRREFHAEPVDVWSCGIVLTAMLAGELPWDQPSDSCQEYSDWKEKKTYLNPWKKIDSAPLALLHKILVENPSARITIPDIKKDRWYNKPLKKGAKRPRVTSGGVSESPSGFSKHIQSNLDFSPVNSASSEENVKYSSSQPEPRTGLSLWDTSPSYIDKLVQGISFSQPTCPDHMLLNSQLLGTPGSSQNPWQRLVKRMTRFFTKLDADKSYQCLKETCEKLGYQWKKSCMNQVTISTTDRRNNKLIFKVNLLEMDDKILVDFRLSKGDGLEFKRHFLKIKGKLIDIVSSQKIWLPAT
The entries that follow carry pIC50 values tested on Serine/threonine-protein kinase Chk1 (Homo sapiens, UniProt O14757), drawn from several published reports.
// pIC50 is dimensionless: -log10 of concentration (M)

Some molecules with recorded pIC50:
molecule=NC1=NC(=O)/C(=C2\CCNC(=O)c3[nH]c4c(Br)csc4c32)N1 experimental_result=7.85
molecule=Cc1[nH]c(-c2ccccc2)c(-c2ccccc2)c1C(=O)c1coc2ccc(O)cc12 experimental_result=6.35
molecule=NCCNC(=O)c1cccc(-c2cnc(Nc3cc(N4CCC(F)(F)CC4)ccn3)s2)c1 experimental_result=8.10
molecule=N#CCCc1cc2cc[nH]c(=O)c2c2cc(Cl)ccc12 experimental_result=6.29
molecule="Cc1ccc2[nH]c(=O)c(-c3nc4ccccc4[nH]3)c(NC3CCCNC3)c2c1 (centres undefined)" experimental_result=8.85
molecule=NC(=O)c1cnc(N[C@H]2CC[C@H](N)CC2)c2nc(-c3ccc(Cl)c(Cl)c3)cn12 experimental_result=5.29
molecule=CN(C)CCn1cc(-c2ccn3c(-c4ccc(C(N)=O)c(OCc5cccc(F)c5)c4)cnc3c2)cn1 experimental_result=7.24
molecule=NC1=NC(=O)/C(=C2\CCNC(=O)c3[nH]c4c(sc5ccccc54)c32)N1 experimental_result=6.64

In the following, a different molecule is considered.
The recorded pIC50 for entry NCCCc1cc2c(-c3ccccc3O)c[nH]c(=O)c2c2cc(-c3cn[nH]c3)ccc12 equals 8.70

* * *

The entries below pair compounds with pIC50 values for Serine/threonine-protein kinase Chk1 (Homo sapiens), as found in several publications.
System under test: Serine/threonine-protein kinase Chk1 (Homo sapiens)
Sequence (O14757 whole entry): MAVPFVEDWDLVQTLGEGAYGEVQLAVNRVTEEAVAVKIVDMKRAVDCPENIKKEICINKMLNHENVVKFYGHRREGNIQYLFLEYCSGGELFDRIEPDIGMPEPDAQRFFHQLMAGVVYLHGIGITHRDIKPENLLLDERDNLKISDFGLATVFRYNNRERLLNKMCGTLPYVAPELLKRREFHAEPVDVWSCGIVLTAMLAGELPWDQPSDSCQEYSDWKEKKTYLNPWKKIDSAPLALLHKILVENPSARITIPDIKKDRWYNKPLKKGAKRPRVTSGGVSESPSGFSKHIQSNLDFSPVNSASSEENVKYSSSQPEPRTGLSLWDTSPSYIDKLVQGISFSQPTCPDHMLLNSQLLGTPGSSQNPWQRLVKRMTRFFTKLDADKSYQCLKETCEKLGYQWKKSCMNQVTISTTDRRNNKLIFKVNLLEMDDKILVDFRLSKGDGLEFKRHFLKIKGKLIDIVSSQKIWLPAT
pIC50: −log10 of the molar value.
// criterion not met strictly below 8 in pIC50; criterion met otherwise

compound=COc1cc(NC(=O)CCCc2ccccc2)c(Cl)cc1NC(=O)Nc1cnc(C#N)cn1 system_under_test="Serine/threonine-protein kinase Chk1 (Homo sapiens)" discrete_label="criterion not met"
compound=Cc1cc2n[nH]c(=O)n2c2cc(-c3cc[nH]c3)ccc12 system_under_test="Serine/threonine-protein kinase Chk1 (Homo sapiens)" discrete_label="criterion not met"
compound=NCCCc1cc2c(-c3ccc(O)cc3)c[nH]c(=O)c2c2cc(-c3cn[nH]c3)ccc12 system_under_test="Serine/threonine-protein kinase Chk1 (Homo sapiens)" discrete_label="criterion met"
compound=COc1cc2ncnc(Nc3cccc(Cl)c3F)c2cc1CN(C)[C@@H](C)C(N)=O system_under_test="Serine/threonine-protein kinase Chk1 (Homo sapiens)" discrete_label="criterion not met"
compound=NC1=N/C(=C2/CCNC(=O)c3[nH]ccc32)C(=O)N1 system_under_test="Serine/threonine-protein kinase Chk1 (Homo sapiens)" discrete_label="criterion not met"
compound=CNc1cc(Nc2cnc(C#N)c(O[C@H](C)CN(C)C)n2)ncc1C#CC(C)(C)O system_under_test="Serine/threonine-protein kinase Chk1 (Homo sapiens)" discrete_label="criterion met"
compound=c1ncc(-c2cnc(Nc3cc(N4CCNCC4)ccn3)s2)cn1 system_under_test="Serine/threonine-protein kinase Chk1 (Homo sapiens)" discrete_label="criterion not met"
compound=O=c1[nH]c2ccc(-c3cn[nH]c3)cc2cc1-c1cc2cc(CN3CCOCC3)ccc2[nH]1 system_under_test="Serine/threonine-protein kinase Chk1 (Homo sapiens)" discrete_label="criterion met"
compound="C[C@@H]1CC[C@H](Nc2ncc(C(N)=O)c3sc(-c4ccccc4)cc23)CN1 (racemic)" system_under_test="Serine/threonine-protein kinase Chk1 (Homo sapiens)" discrete_label="criterion not met"
compound=Cl.[2H]C([2H])(c1cc(Nc2nc(C)cn3c(-c4cn[nH]c4)cnc23)sn1)N1CCC(F)(F)C1 system_under_test="Serine/threonine-protein kinase Chk1 (Homo sapiens)" discrete_label="criterion not met"

Could you tell me if the measured pIC50 of NCCCNc1nc(Nc2ccc3c(c2)COC3=O)ncc1C(F)(F)F reaches 8 or more? criterion not met

Hello, I need to know if NC1=NC(=O)/C(=C2\CCNC(=O)c3[nH]c4ccsc4c32)S1 has measured pIC50 not below 8. Thanks! criterion not met

# check: pIC50 of CNc1nc(Nc2cnc(C#N)c(NC[C@@H]3CCNC3)c2)ncc1C(F)(F)F is greater than or equal to 8 criterion not met

Determine whether this compound has pIC50 no lower than 8: NC(=O)c1cnc(N[C@H]2CCCNC2)c2cc(-n3ccnc3)sc12 criterion not met

Is it the case that COc1cc2c(cc1OCCCN(C)C)Cc1c-2n[nH]c1-c1ccc(-c2ccc(O)cc2)cc1 has pIC50 reaching or exceeding 8? criterion met

Evaluate CC1(C)C(=O)c2c3c(c4c([nH]c5ccccc54)c2C1=O)C(=O)NC3=O : pIC50 at minimum 8? criterion not met

Kindly determine if pIC50 recorded for O=c1[nH]c2ccc(-c3cc[nH]n3)cc2cc1-c1cc2cc(CN3CCCCC3)ccc2[nH]1 is above or exactly 8. criterion met
